Cited source: PubChem BioAssay (EPA / NIEHS)

testedOn: human Retinoid X Receptor beta (RXRb), RXRB (gene 6257)
methodNotes: ATG_RXRb_TRANS: Attagene TRANS-FACTORIAL HepG2 Assay for human Retinoid X Receptor beta (RXRb) (AID 2283013)
Records with an inconclusive call do not appear. Active and inactive are the calls of the source. How the source made its calls: active means hit-call score of the fitted dose curve at least 0.9, where 1 is the maximum; inconclusive means response in the unintended direction; inactive means score below 0.9.
Reply using exactly one outcome from yes (1) for active, no (0) for inactive

Answered examples (4):
# compound, testedOn, category
measured = [
    ("CC(=O)C=CC1=C(C)CCCC1(C)C", "human Retinoid X Receptor beta (RXRb), RXRB (gene 6257)", "yes (1)"),
    ("O=C1CCCCCCCCCCOCCCCO1", "human Retinoid X Receptor beta (RXRb), RXRB (gene 6257)", "no (0)"),
    ("CCCC[n+]1ccccc1", "human Retinoid X Receptor beta (RXRb), RXRB (gene 6257)", "no (0)"),
    ("C=O", "human Retinoid X Receptor beta (RXRb), RXRB (gene 6257)", "no (0)"),
]

Prompt: Could you check what this test reported for COc1ccnc(CS(=O)c2nc3cc(OC(F)F)ccc3[nH]2)c1OC (stereo unspecified) ?
Completion: no (0)

Prompt: Could you check what this test reported for `CC(C)=CCC/C(C)=C/COC=O` ?
Completion: no (0)

Prompt: Could you check what this test reported for C=CC(C)(O)CCC=C(C)CCC=C(C)C (stereo unspecified) ?
Completion: yes (1)

Prompt: Could you check what this test reported for `CC(C)C(C)(C)C(C)(C)C(C)(C)S` ?
Completion: no (0)

Prompt: Could you check what this test reported for `COc1cc(C)cc(O)c1` ?
Completion: no (0)

Prompt: Could you check what this test reported for `CC1(C)[C@H]2CC[C@]1(C)[C@H](O)C2` ?
Completion: no (0)

Prompt: Could you check what this test reported for `Cc1ccc(C(=O)O)o1` ?
Completion: no (0)

Prompt: Could you check what this test reported for `Cc1cccc(Nc2ccccc2C(=O)O)c1C` ?
Completion: no (0)

Prompt: Could you check what this test reported for `NC(=O)c1ccccc1Cl` ?
Completion: no (0)

Prompt: Could you check what this test reported for `Clc1ccc(Cl)c(Cl)c1Cl` ?
Completion: yes (1)

Prompt: Could you check what this test reported for `O=C(O)c1snc(Cl)c1Cl` ?
Completion: no (0)

Prompt: Could you check what this test reported for `C=C(C)C(=O)OCCOC(=O)CC(C)=O` ?
Completion: no (0)

Prompt: Could you check what this test reported for `Nc1nc2ccc([N+](=O)[O-])cc2s1` ?
Completion: no (0)

Prompt: Could you check what this test reported for `C=C[Si](OCC)(OCC)OCC` ?
Completion: no (0)

----------
methodNotes: ATG_EGR_CIS: Attagene CIS-FACTORIAL HepG2 Assay for human Early Growth Response 1 (EGR1) (AID 2282938)
runConditions: HepG2 Attagene CIS-FACTORIAL EGR reporter mRNA; actives raise or lower the signal
Active and inactive are the calls of the source. How the source made its calls: active means hit-call score of the fitted dose curve at least 0.9, where 1 is the maximum; inactive means score below 0.9.
Reply using exactly one outcome from true = active, false = inactive

Answered examples (5):
# compound, category
records = [
    ("O=C[C@@H](O)[C@H](O)[C@H](O)CO", "false"),
    ("Clc1cccc(Cl)n1", "false"),
    ("CC(C)=CCCC(C)CC=O (stereo not drawn)", "false"),
    ("COCCCOc1ccnc(CS(=O)c2nc3ccccc3[nH]2)c1C (stereo not drawn)", "false"),
    ("COc1cccc(OC)c1", "false"),
]

Prompt: Could you check what this test reported for `CC1(C)OC[C@@H]2O[C@@]3(C(=O)O)OC(C)(C)O[C@H]3[C@@H]2O1` ?
Completion: false

Prompt: Could you check what this test reported for `Sc1nc(S)nc(S)n1` ?
Completion: false

Prompt: Could you check what this test reported for `Nc1cc([N+](=O)[O-])ccc1O` ?
Completion: false

----------
testedOn: Nuclear respiratory factor 1 (Homo sapiens) (UniProt Q16656)
Sequence (Q16656 whole entry, looked up): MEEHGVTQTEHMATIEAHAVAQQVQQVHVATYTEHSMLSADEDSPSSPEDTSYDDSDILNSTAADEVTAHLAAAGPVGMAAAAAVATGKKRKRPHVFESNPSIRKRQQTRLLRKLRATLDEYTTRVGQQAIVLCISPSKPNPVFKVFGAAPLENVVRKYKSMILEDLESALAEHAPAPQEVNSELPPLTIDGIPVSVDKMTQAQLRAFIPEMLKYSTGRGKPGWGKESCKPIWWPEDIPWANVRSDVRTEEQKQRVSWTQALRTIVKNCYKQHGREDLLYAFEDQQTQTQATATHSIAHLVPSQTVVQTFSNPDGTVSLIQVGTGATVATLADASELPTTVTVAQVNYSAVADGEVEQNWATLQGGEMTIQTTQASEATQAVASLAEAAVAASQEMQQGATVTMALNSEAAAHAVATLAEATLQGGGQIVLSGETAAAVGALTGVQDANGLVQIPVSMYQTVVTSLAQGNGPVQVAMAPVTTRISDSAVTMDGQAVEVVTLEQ
methodNotes: ATG_NRF1_CIS: Attagene CIS-FACTORIAL HepG2 Assay for human Nuclear Respiratory Factor 1 (NRF1) Orphan Gene (AID 2282987)
runConditions: HepG2 NRF1 cis-element reporter, Attagene multiplex; actives raise or lower the signal
Activity calls are given as the source filed them. Rule for the calls: active = hit-call score of the fitted dose curve at least 0.9, where 1 is the maximum; inactive = score below 0.9.
experimentalEndpoint: outcome

# molecule, outcome
measured = [
    ("Clc1nc(C(Cl)(Cl)Cl)c(Cl)c(Cl)c1Cl", "inactive"),
    ("O=C(O)c1cccc(C(F)(F)F)c1", "inactive"),
    ("CN(C)CCCN", "inactive"),
    ("CCCCNC(=O)NS(=O)(=O)c1ccc(C)cc1", "inactive"),
    ("CCCCC(CC)COC(=O)/C=C\\C(=O)OCC(CC)CCCC (centres undefined)", "inactive"),
]

Prompt: I'm curious: which outcome was measured for `O=C(O)c1cn(-c2ccc(F)cc2)c2cc(N3CCNCC3)c(F)cc2c1=O` tested on Nuclear respiratory factor 1 (Homo sapiens) (UniProt Q16656)?
Completion: inactive

Prompt: I'm curious: which outcome was measured for `C=C(C)[C@@H]1CCC2=CC(=O)C[C@@H](C)[C@]2(C)C1` tested on Nuclear respiratory factor 1 (Homo sapiens) (UniProt Q16656)?
Completion: inactive

Prompt: I'm curious: which outcome was measured for CC1CC(OC(=O)c2ccccc2O)CC(C)(C)C1 (centres undefined) tested on Nuclear respiratory factor 1 (Homo sapiens) (UniProt Q16656)?
Completion: inactive

Prompt: I'm curious: which outcome was measured for `Cc1ccc2n[nH]nc2c1` tested on Nuclear respiratory factor 1 (Homo sapiens) (UniProt Q16656)?
Completion: inactive

Prompt: I'm curious: which outcome was measured for `CC(=O)C(=O)O` tested on Nuclear respiratory factor 1 (Homo sapiens) (UniProt Q16656)?
Completion: inactive

Prompt: I'm curious: which outcome was measured for `CCCCO` tested on Nuclear respiratory factor 1 (Homo sapiens) (UniProt Q16656)?
Completion: inactive

Prompt: I'm curious: which outcome was measured for `O=C(O)c1ccc(C(=O)O)cc1` tested on Nuclear respiratory factor 1 (Homo sapiens) (UniProt Q16656)?
Completion: inactive

Prompt: I'm curious: which outcome was measured for `CC[Si](OC(C)=O)(OC(C)=O)OC(C)=O` tested on Nuclear respiratory factor 1 (Homo sapiens) (UniProt Q16656)?
Completion: inactive

Prompt: I'm curious: which outcome was measured for `O=c1[nH]nnc2ccccc12` tested on Nuclear respiratory factor 1 (Homo sapiens) (UniProt Q16656)?
Completion: inactive

----------
testedOn: Peroxisome proliferator-activated receptor gamma (Homo sapiens) (UniProt P37231)
Sequence (P37231 whole entry, looked up): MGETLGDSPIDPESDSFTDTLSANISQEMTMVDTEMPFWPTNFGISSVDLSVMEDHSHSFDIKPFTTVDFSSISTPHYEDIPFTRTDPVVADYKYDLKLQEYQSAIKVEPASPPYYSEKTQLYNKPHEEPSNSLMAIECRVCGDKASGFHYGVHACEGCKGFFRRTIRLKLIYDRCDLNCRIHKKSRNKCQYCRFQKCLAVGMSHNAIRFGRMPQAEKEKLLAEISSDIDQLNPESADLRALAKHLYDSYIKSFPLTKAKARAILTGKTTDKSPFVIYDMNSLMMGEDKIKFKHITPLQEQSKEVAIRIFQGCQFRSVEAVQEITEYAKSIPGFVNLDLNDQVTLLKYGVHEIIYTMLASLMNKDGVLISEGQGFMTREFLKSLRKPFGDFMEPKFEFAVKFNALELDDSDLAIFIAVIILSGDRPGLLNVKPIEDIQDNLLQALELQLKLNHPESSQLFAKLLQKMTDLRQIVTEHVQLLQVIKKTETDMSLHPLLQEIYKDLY
methodNotes: OT_PPARg_PPARgSRC1_0480: Odyssey Thera (OT) 8-hour Protein-Complementation Assay for Peroxisome Proliferator-activated Receptor Gamma / SRC-1 Co-activator (AID 2283387);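 further: nuclear to cytoplasmic split Venus YFP fluorescence ratio reporting PPARg SRC-1 interaction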
Results filed as inconclusive are left out. Active and inactive are the calls of the source. The calls were made as follows: active = hit-call score of the fitted dose curve at least 0.9, where 1 is the maximum; inconclusive = response in the unintended direction; inactive = score below 0.9.
Reply using exactly one outcome from class 1 (active), class 0 (inactive)

Answered examples (10):
# molecule, testedOn, category
measured = [
    ("CCCCCCCCCCCCCCCCCC(=O)OCC(CC)CCCC (stereo unspecified)", "Peroxisome proliferator-activated receptor gamma (Homo sapiens) (UniProt P37231)", "class 0"),
    ("O=C1C(c2[nH]c3ccc(S(=O)(=O)O)cc3c2O)=Nc2ccc(S(=O)(=O)O)cc21", "Peroxisome proliferator-activated receptor gamma (Homo sapiens) (UniProt P37231)", "class 0"),
    ("C[Si](O[Si](C)(C)C)O[Si](C)(C)C", "Peroxisome proliferator-activated receptor gamma (Homo sapiens) (UniProt P37231)", "class 0"),
    ("CC(C)=CCCC(C)=CCCC(C)=CCO", "Peroxisome proliferator-activated receptor gamma (Homo sapiens) (UniProt P37231)", "class 0"),
    ("Cc1ccc(S)cc1", "Peroxisome proliferator-activated receptor gamma (Homo sapiens) (UniProt P37231)", "class 0"),
    ("O=C(O)CCCCCCCC(=O)O", "Peroxisome proliferator-activated receptor gamma (Homo sapiens) (UniProt P37231)", "class 0"),
    ("CC(C)c1cccc(O)c1", "Peroxisome proliferator-activated receptor gamma (Homo sapiens) (UniProt P37231)", "class 0"),
    ("CC1COc2ccccc2N1C(=O)C(Cl)Cl (stereo unspecified)", "Peroxisome proliferator-activated receptor gamma (Homo sapiens) (UniProt P37231)", "class 0"),
    ("O=C1NC(=O)c2ccccc21", "Peroxisome proliferator-activated receptor gamma (Homo sapiens) (UniProt P37231)", "class 0"),
    ("O=Nc1ccc(Nc2ccccc2)cc1", "Peroxisome proliferator-activated receptor gamma (Homo sapiens) (UniProt P37231)", "class 0"),
]

Prompt: Could you check what this test reported for `CCCCCCCCCCCCCOS(=O)(=O)O` ?
Completion: class 0

Prompt: Could you check what this test reported for CCCC1CCC(=O)O1 (stereo unspecified) ?
Completion: class 0

Prompt: Could you check what this test reported for `NCCCCCCN` ?
Completion: class 0

----------
methodNotes: ATG_PXRE_CIS: Attagene CIS-FACTORIAL HepG2 Assay for human Pregnane X Receptor Element (PXRE) (AID 2282957)
runConditions: HepG2 Attagene CIS-FACTORIAL PXRE reporter, mRNA; actives raise or lower the signal
Calls of active or inactive are those of the source. Rule for the calls: active = hit-call score of the fitted dose curve at least 0.9, where 1 is the maximum; inactive = score below 0.9.
Reply using exactly one outcome from active, inactive

Answered examples (2):
# compound, category
data = [
    ("O=C(O)c1snc(Cl)c1Cl", "active"),
    ("CCCCNC(=O)NS(=O)(=O)c1ccc(N)cc1", "inactive"),
]

Prompt: Could you check what this test reported for `C=C(C)C(=O)O[C@H]1C[C@@H]2CC[C@@]1(C)C2(C)C` ?
Completion: active

Prompt: Could you check what this test reported for `COc1cccc(OC)c1` ?
Completion: inactive

Prompt: Could you check what this test reported for CCC(=O)/C=C/C1C(C)=CCCC1(C)C (stereo not drawn) ?
Completion: active

Prompt: Could you check what this test reported for `O=C1CCCCCCCCCCCCCCO1` ?
Completion: inactive

Prompt: Could you check what this test reported for `CCCCCCCCCCCCCOS(=O)(=O)O` ?
Completion: inactive

Prompt: Could you check what this test reported for `Cc1ccc2n[nH]nc2c1` ?
Completion: inactive

Prompt: Could you check what this test reported for `O=C[C@H](O)[C@H](O)[C@H](O)CO` ?
Completion: inactive

Prompt: Could you check what this test reported for `CC(=O)O[C@]1(C(C)=O)CC[C@H]2[C@@H]3C[C@H](C)C4=CC(=O)CC[C@]4(C)[C@H]3CC[C@@]21C` ?
Completion: active

Prompt: Could you check what this test reported for CCC(C(=O)NC(N)=O)c1ccccc1 (stereo not drawn) ?
Completion: inactive

Prompt: Could you check what this test reported for `C#C[C@]1(O)CC[C@H]2[C@@H]3CCC4=Cc5oncc5C[C@]4(C)[C@H]3CC[C@@]21C` ?
Completion: active

Prompt: Could you check what this test reported for `c1ccc2c(c1)c1cccc3ccc4cccc2c4c31` ?
Completion: inactive
